experiment: Plasma protein binding in dog; assay type: ADME, cell-free, Canis lupus familiaris; conditions: read-out: PPB
Quantity Kind: fraction unbound

Record request: fraction unbound value, item CCc1cc(/C(C)=N/OCc2ccc(C3CCCCC3)c(C(F)(F)F)c2)ccc1CN1CC(C(=O)O)C1 < 0.001

* * *

target: UniProt P21453; assay: Agonist activity at human S1P1 receptor transfected in CHO cells incubated for 10 to 15 mins prior to GTPgamma35S addition measured after 120 mins by GTPgamma35S binding assay
Sequence (P21453 whole entry): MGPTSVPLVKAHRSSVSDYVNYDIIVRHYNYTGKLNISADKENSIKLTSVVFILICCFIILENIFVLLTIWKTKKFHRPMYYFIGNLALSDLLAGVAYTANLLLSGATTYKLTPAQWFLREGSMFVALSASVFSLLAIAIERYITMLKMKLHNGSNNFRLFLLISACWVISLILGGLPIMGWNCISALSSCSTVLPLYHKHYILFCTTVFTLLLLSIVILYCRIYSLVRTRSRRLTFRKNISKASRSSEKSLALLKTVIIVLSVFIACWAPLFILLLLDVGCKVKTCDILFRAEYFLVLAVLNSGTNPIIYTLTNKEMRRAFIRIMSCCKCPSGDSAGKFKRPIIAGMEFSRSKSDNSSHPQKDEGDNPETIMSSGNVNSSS
Quantity Kind: pEC50
// field semantics: pEC50 = negative decimal log of concentration (mol/L)

Field: example entries. Status: answers known.
[[record]]
smiles_representation = "CCc1cc(/C(C)=N/OCc2ccc(C3CCCCC3)c(C(F)(F)F)c2)ccc1CNCCC(=O)O"
quantitative_readout = 9.15

[[record]]
smiles_representation = "C/C(=N\\OCc1ccc(-c2ccccc2)c(F)c1)c1ccc(CNCCC(=O)O)cc1"
quantitative_readout = 7.21


Record request: pEC50 value, item C/C(=N\OCc1ccc(C2CCCCC2)c(C(F)(F)F)c1)c1ccc(CN2CC(C(=O)O)C2)c(C)c1 8.80

Thanks! And C/C(=N\OCc1ccc(-c2ccccc2)cc1C(F)(F)F)c1ccc(CNCCC(=O)O)cc1 ? 5.00

Thanks! And C/C(=N\OCc1ccc(C2CCCCC2)c(C(F)(F)F)c1)c1ccc(CNCCC(=O)O)cn1 ? 8.85

Thanks! And C/C(=N\OCc1ccc(-c2ccco2)c(C(F)(F)F)c1)c1ccc(CNCCC(=O)O)cc1 ? 7.82

Thanks! And C/C(=N\OCc1ccc(C2CCCC2)c(C(F)(F)F)c1)c1ccc(CNCCC(=O)O)cc1 ? 9.22

Thanks! And COc1ccc(-c2ccc(CO/N=C(\C)c3ccc(CNCCC(=O)O)cc3)cc2)cc1 ? 5.82

Thanks! And C/C(=N\OCc1ccc(-c2cccs2)c(C(F)(F)F)c1)c1ccc(CNCCC(=O)O)cc1 ? 7.74

Thanks! And C/C(=N\OCc1ccc(C2CCCCC2)c(C(F)(F)F)c1)c1ccc(CNCCC(=O)O)o1 ? 7.77

Thanks! And C/C(=N\OCc1ccc(C2CCCCC2)c(C(F)(F)F)c1)c1ccc(CNCCC(=O)O)s1 ? 8.66

Thanks! And COc1ccccc1-c1ccc(CO/N=C(\C)c2ccc(CNCCC(=O)O)cc2)cc1 ? 5.85

Where do these numbers come from? They come from ChEMBL document CHEMBL2331139.
